systemName: T1, human MASP-2 D4-6 recombinant protein (human, UniProt O00187 298-686)
T1 construct: his6 tag fused at the N-terminus, made in HEK293E; also called enzymatic activity domains CCP1-CCP2-SP of human MASP-2
T1 sequence (O00187 other isoform, or with tags, fused parts or gaps limits assumed): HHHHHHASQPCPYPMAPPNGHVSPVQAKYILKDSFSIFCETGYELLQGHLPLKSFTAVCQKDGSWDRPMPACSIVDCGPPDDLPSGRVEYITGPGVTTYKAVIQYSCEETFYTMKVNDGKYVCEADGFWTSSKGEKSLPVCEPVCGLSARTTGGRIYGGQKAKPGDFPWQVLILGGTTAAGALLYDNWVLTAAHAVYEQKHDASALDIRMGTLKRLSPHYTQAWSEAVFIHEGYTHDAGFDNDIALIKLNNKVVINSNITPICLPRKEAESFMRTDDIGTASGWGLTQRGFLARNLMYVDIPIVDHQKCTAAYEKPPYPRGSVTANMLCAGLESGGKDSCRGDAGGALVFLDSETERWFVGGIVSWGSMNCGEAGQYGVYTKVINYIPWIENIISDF
measurementNotes: SPR Biacore T200, antibody on Protein A chip, antigen as analyte, 1:1 fit
For each of the binders below, state its Kd.
The reply should read as a number followed by its unit.

Could I get Kd for every one of these entries?
1. chimeric antibody 1B2 (antibody, V domains shown) VH: DVQLQESGPGLVKPSQSLSLTCTVTGYSITSDYAWNWIRQFSGDKLEWMGYISYSGSTSYNPSLKSRISITRDTSKNQFFLHLSSVTTEDTATYFCARYWGDYWGHGTTLTVSS VL: DSVMTQSQKFMSTSVGDRVSVTCKASHNVGTNVAWFQQKPGQSPKGLIYSASYRSSGVPDRFTGSGSGTDFTLTISNVQSEDLAEYFCLQYNSNPLTFGGGTKLEVK
2. chimeric antibody 10L3 (antibody, V domains shown) VH: DVQLQESGPGLVKPSQSLSLTCTVTGYSITSDYAWNWIRQFPGNKLEWMGYISYSGRTSYNPSLKSRISITRDTSKNQFFLQLNSVTTEDTATYYCAKLGGGHGMDYWGQGTSVTVSS VL: IVMTQSQKFMSTSVGDRVSVTCKASQNVDTNVAWYQQKPGQSPKALIYSASYRYSGVPDRFTGSGSGTDFTLTISNVQSEDLAEYFCLQYNSYLTFGSGTKLELK

Outgoing:
1. 0.002 nM
2. 0.07 nM

I'm hoping you can list Kd for every binder here, please.
1. chimeric antibody 28O14 (antibody, V domains shown) VH: QVQLQQSGTELARPGASVRMSCKASGYTFRSHTMHWVKQRPGQGLEWIGYINPSTGYINYNQKFKDKATLTADKSSSTAYMQLSSLTSEDSAVYYCARSNYSYYYGMDYWGQGTSVTVSS VL: DIVMTQSHKFMSTSVGDRVTITCKASQDVNTAVAWYQQKPGQSPKLLIYSASYRYTGVPDRFTGSGSGTDFTFTISSLQAEDLAVYYCQQHYNIPLTFGAGTKLELK
2. chimeric antibody 3B9 (antibody, V domains shown) VH: DVQLQESGPGLVRPSQSLSLTCTVTGYSITSDYAWNWIRQFPGNKLEWMGYISYSGRTSYNPSLKSRLSITRDTSKNQFFLQLNSVSSADTATYYCAIISTAVDFDYWGQGTTLTVSS VL: QTVLTQSPAIMSASLGERVTMTCTASSSVSSSYLLWYQQKPGSSPKLWIYSTSKLASGVPVRFSGSGSGTSYSLTISSMEADDAATYYCLQYNRSPLTFGAGTKLELK
3. chimeric antibody 4F18 (antibody, V domains shown, to be rechecked) VH: EVQLQESGPGLVKPSQSLSLACTVTGYSITSDYAWHWIRQFPGNKLEWMGFISYSGRTNYNPPLTSRISITRDTSKNQFFLQLNSVTTEDTATYYCARSYDYWFGYWGQGTLVTVSA VL: NVLMTQTPLSLPVSLGDQASISCRSSQSLVHSNGNTYLEWYMQKPGQSPKLLIYTVSRRFSGVPDRFSGSGSGTDFTLKISRVEAEDLGVYYCFQGSHVPVTFGAGTKLELK
4. chimeric antibody 16A17 (antibody, V domains shown) VH: DVQLQESGPGLVKPSQSLSLTCTVTGYSITSDYAWKWIRQFPGNKLEWMGYISYSGSTSYHPSLKGRISITRDTSKNQFFLQLNSVTADDTATYYCAILGYYAMDYWGQGTSVTVSS VL: DIVMTQSQKFMSTSVGDRVSITCKASQNVRVDVAWYQQKSGQSPRALIYLASNRHTGVPDRFTGSGSGTDFTLTITNVQSEDLADYFCPQHWSYPLTFGGGTKLEIK
5. chimeric antibody 25L15 (antibody, V domains shown) VH: KVKLVESGGDLVKPGGSLKISCAASGFTFSNYAMSWIRQTPDKRLEWVATVSSGGPYTYYPDSVKGRFTISRDNAENTLYLQMSSLRSDDTAIYYCARQIYSDYDVTYWGQGTLVTVSA VL: QIVLSQSPAILSASPGETVTMTCRVSSSVSYMYWLQQKPGSSPKPWIYATSNLASGVPARFSGSGSGTSYSLTITRVEAEDAATYYCQQWSFRPWTFGGGTKLEIK

Outgoing:
1: 0.09 nM; 2: 0.067 nM; 3: 0.108 nM; 4: 0.008 nM; 5: 0.12 nM
